Biological target: human Claudin-6 (CLDN6) (human) (UniProt P56747)
Test: FACS, limiting dilution, UMUC4 cells
readout.name: FACS signal at 40 nM
// no unit string in output, number only

binder	FACS signal at 40 nM
AB S7 (antibody, V domains shown) VH: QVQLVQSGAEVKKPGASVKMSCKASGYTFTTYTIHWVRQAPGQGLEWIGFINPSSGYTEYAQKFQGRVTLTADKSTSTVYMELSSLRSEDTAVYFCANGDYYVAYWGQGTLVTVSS VL: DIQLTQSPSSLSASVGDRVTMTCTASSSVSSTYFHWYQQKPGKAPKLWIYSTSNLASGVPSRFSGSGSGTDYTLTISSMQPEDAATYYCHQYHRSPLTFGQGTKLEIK	7970

Proceed to the following item.
Tell me measured FACS signal at 40 nM for AB S3 (antibody, V domains shown) VH: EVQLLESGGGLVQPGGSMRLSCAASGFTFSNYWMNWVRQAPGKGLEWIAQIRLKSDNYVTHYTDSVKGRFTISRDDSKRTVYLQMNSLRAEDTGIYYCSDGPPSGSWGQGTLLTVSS VL: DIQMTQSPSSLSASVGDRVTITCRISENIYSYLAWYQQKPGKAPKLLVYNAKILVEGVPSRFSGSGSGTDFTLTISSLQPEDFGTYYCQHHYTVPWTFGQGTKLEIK please.
7780
